- Tested on: Staphylococcus aureus MW2 delta-mecA (mecA-)
- ASSAY TEXT: IC50 (growth, competition assay)
- ASSAY CONDITIONS: fluorescent label: DsRed; cefoxitin: subinhibitory
Where a name gives a salt, the structure may show the parent alone.
MEASUREMENT NAME: IC50 (µM)
Give bare numbers, in µM.

Go through the items and report each one's IC50.
1. COCC(=O)O[C@]1(CCN(C)CCCc2nc3ccccc3[nH]2)CCc2cc(F)ccc2[C@@H]1C(C)C [Mibefradil dihydrochloride]
2. CCN1C[C@H](C)n2c(c(O)c3c(=O)n(Cc4ccc(F)c(Cl)c4)nc(C(=O)NC)c32)C1=O

A)
1: 16.4; 2: 39.3
